# System: PC-3
# testDetails: Antiproliferative activity against human PC-3 cells incubated for 48 hrs by MTT assay
# Type: functional, cell-based
# assayContext: PC-3, 48 h
Below, each of the molecules is paired with its reported pIC50 value.
Recall that pIC50 is obtained by taking minus log10 of the concentration measured in molar.

A selection of reference data follows.
COc1ccc(N(C)c2nc(C(F)(F)c3cccc(OC)c3)nc3ccccc23)cc1 : 5.25
CCOC(=O)c1[nH]c(-c2ccc(Nc3nc(C(=O)c4ccccc4)nc4ccc(F)cc34)cc2)nc1C : 5.24
COc1ccc(N(C)c2nc(C(=O)c3cccc(OC)c3)nc3ccccc23)cc1 : 5.18
COc1ccc(N(C)c2nc([C@@H](N)C(C)C)nc3ccccc23)cc1 : 5.10

Shifting focus to the molecule that follows.
For `CC(C)(CN1C(=O)C(Cl)=C(Cl)C1=O)CN1C(=O)C(Cl)=C(Cl)C1=O` , what is its reported pIC50?
5.17
